The reported measurements were obtained from ChEMBL document CHEMBL1137066.

target: UniProt:P13945; assay: Agonistic activity was determined by measuring cAMP accumulation in CHO cells expressing cloned human Beta-3 adrenergic receptor; type: functional, cell-based
Sequence (P13945 whole entry): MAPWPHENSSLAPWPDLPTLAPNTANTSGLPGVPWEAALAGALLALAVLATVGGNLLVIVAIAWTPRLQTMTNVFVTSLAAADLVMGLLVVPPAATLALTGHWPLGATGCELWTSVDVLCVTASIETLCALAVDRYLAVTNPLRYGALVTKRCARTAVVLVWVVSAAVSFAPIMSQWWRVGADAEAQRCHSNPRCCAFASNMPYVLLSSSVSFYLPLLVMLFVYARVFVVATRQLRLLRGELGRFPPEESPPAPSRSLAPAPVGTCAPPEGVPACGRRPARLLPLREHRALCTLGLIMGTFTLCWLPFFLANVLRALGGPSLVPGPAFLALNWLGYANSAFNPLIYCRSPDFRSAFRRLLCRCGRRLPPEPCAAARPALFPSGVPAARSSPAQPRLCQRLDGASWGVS
pEC50: −log10 of the molar value.
EXPERIMENTAL ENDPOINT: pEC50

[a] CS(=O)(=O)Oc1cccc2c(CCNC[C@H](O)c3cccc(NS(=O)(=O)c4cccc(Cl)c4)c3)c[nH]c12
[b] CS(=O)(=O)Oc1cccc2c(CCNC[C@H](O)c3cccc(NS(=O)(=O)c4ccc(Br)s4)c3)c[nH]c12
# compare pEC50 for a vs b ; return the one with the smaller value Use the label to indicate which entry you chose. b
